Every entry's value here was drawn from ChEMBL document CHEMBL1250501.

# Experiment: Cytotoxicity against mouse AML-12 cells assessed as cell viability at 10 ug/ml after 24 hrs by MTT assay
# Type: cell-based
# Condition Notes: read-out: Activity
Recorded Endpoint: viability at 24 h, 10 ug/ml
Respond with a number, then the unit of measure.

For record `O=[N+]([O-])c1ccc(/C=N/NC2=NS(=O)(=O)c3ccccc3N2c2ccccc2)o1` the listed viability at 24 h, 10 ug/ml is 9.1%

###

# Experiment: Cytotoxicity against mouse AML-12 cells assessed as cell viability at 2 ug/ml after 24 hrs by MTT assay
# Format: cell-based
# Condition Notes: read-out: Activity
Recorded Endpoint: viability at 24 h, 2 ug/ml (%)
Your answer is read as %, so omit the unit and give the number.

Value of measured viability at 24 h, 2 ug/ml for the entry `O=[N+]([O-])c1ccc(/C=N/NC2=NS(=O)(=O)c3ccccc3N2c2ccccc2)o1` : 2.4

###

Known zone of inhibition at 100 µg/mL of a selection of compounds
# Test system: Pseudomonas aeruginosa
# Experiment: Antibacterial activity against Pseudomonas aeruginosa at 100 ug/ml after 18 hrs by cup plate method
# Type: functional
# Condition Notes: read-out: DIZ
Hi! Could you send only the number? It should be in mm, unit omitted.

Example results:
INSERT INTO measurements (query_smiles, assayed_target, recorded_endpoint, unit_spec, endpoint_value) VALUES
  ('CN1C(N2CCN(Cc3ccc([N+](=O)[O-])o3)CC2)=NS(=O)(=O)c2ccccc21', 'Pseudomonas aeruginosa', 'zone of inhibition at 100 µg/mL', 'mm', 17),
  ('O=[N+]([O-])c1ccc(CN2CCN(C3=NS(=O)(=O)c4ccccc4N3c3ccccc3)CC2)o1', 'Pseudomonas aeruginosa', 'zone of inhibition at 100 µg/mL', 'mm', 15),
  ('CN1C(N2CCN(Cc3ccc([N+](=O)[O-])s3)CC2)=NS(=O)(=O)c2ccccc21', 'Pseudomonas aeruginosa', 'zone of inhibition at 100 µg/mL', 'mm', 13),
  ('CCN1C(N2CCN(Cc3ccc([N+](=O)[O-])s3)CC2)=NS(=O)(=O)c2ccccc21', 'Pseudomonas aeruginosa', 'zone of inhibition at 100 µg/mL', 'mm', 11),
  ('O=C(c1ccc([N+](=O)[O-])o1)N1CCN(C2=NS(=O)(=O)c3ccccc3N2c2ccccc2)CC1', 'Pseudomonas aeruginosa', 'zone of inhibition at 100 µg/mL', 'mm', 16),
  ('CCN1C(N2CCN(Cc3ccc([N+](=O)[O-])o3)CC2)=NS(=O)(=O)c2ccccc21', 'Pseudomonas aeruginosa', 'zone of inhibition at 100 µg/mL', 'mm', 16);

Pending compound:
Observed zone of inhibition at 100 µg/mL, Pseudomonas aeruginosa, `O=[N+]([O-])c1ccc(CN2CCN(C3=NS(=O)(=O)c4ccccc4N3c3ccccc3)CC2)s1` : 12

###

# Experiment: Cytotoxicity against mouse AML-12 cells assessed as cell viability at 50 ug/ml after 24 hrs by MTT assay
# Assay type: cell-based
# Condition Notes: read-out: Activity
Recorded Endpoint: viability at 24 h, 50 ug/ml (%)
Provide the reading as a plain figure in %.

Measured viability at 24 h, 50 ug/ml, `O=[N+]([O-])c1ccc(/C=N/NC2=NS(=O)(=O)c3ccccc3N2c2ccccc2)o1` : 8.7

###

// MIC lookup, one value per entry
# Tested on: Mycobacterium tuberculosis
# Experiment: Antimycobacterial activity against Mycobacterium tuberculosis H37Rv after 3 to 4 weeks by broth microdilution assay
# Type: functional

Examples with answers:
INSERT INTO results (query_smiles, endpoint_value) VALUES
  ('CN1C(N2CCN(C(=O)c3ccc([N+](=O)[O-])o3)CC2)=NS(=O)(=O)c2ccccc21', '16 µg/mL'),
  ('O=[N+]([O-])c1ccc(CN2CCN(C3=NS(=O)(=O)c4ccccc4N3c3ccccc3)CC2)s1', '> 16 µg/mL');

Below: the item to evaluate.
// MIC lookup, compound = `CN1C(N2CCN(Cc3ccc([N+](=O)[O-])s3)CC2)=NS(=O)(=O)c2ccccc21` , result: > 16 µg/mL

###

# System: Escherichia coli
# Experiment: Antibacterial activity against Escherichia coli at 100 ug/ml after 18 hrs by cup plate method
# Assay type: functional
# Condition Notes: read-out: DIZ
Recorded Endpoint: zone of inhibition at 100 µg/mL (mm)
Write the answer as a number in mm, unit excluded.

Example compounds with recorded zone of inhibition at 100 µg/mL:
INSERT INTO assay_data (query_smiles, endpoint_value) VALUES
  ('CN1C(N2CCN(Cc3ccc([N+](=O)[O-])o3)CC2)=NS(=O)(=O)c2ccccc21', 26),
  ('CCN1C(N2CCN(Cc3ccc([N+](=O)[O-])s3)CC2)=NS(=O)(=O)c2ccccc21', 15),
  ('O=[N+]([O-])c1ccc(CN2CCN(C3=NS(=O)(=O)c4ccccc4N3c3ccccc3)CC2)s1', 16),
  ('CCN1C(N2CCN(Cc3ccc([N+](=O)[O-])o3)CC2)=NS(=O)(=O)c2ccccc21', 30),
  ('CN1C(N2CCN(Cc3ccc([N+](=O)[O-])s3)CC2)=NS(=O)(=O)c2ccccc21', 16),
  ('O=[N+]([O-])c1ccc(CN2CCN(C3=NS(=O)(=O)c4ccccc4N3c3ccccc3)CC2)o1', 20);

Then there is this compound:
For record `O=C(c1ccc([N+](=O)[O-])o1)N1CCN(C2=NS(=O)(=O)c3ccccc3N2c2ccccc2)CC1` the listed zone of inhibition at 100 µg/mL is 20

###

# Experiment: Cytotoxicity against mouse AML-12 cells assessed as cell viability at 100 ug/ml after 24 hrs by MTT assay
# Format: cell-based
# Condition Notes: read-out: Activity
Recorded Endpoint: viability at 24 h, 100 ug/ml (%)
Reply with just the number (in %).

Value of viability at 24 h, 100 ug/ml reported for the compound `O=[N+]([O-])c1ccc(/C=N/NC2=NS(=O)(=O)c3ccccc3N2c2ccccc2)o1` is 14.9

###

# Test system: Klebsiella pneumoniae
# Experiment: Antibacterial activity against Klebsiella pneumoniae at 100 ug/ml after 18 hrs by cup plate method
# Assay type: functional
# Condition Notes: read-out: DIZ
Recorded Endpoint: zone of inhibition at 100 µg/mL (mm)
Return type: number; implicit unit mm.

Recorded results for 2 compounds are shown here.
INSERT INTO assay_data (query_smiles, recorded_endpoint, unit_spec, endpoint_value) VALUES
  ('O=[N+]([O-])c1ccc(CN2CCN(C3=NS(=O)(=O)c4ccccc4N3c3ccccc3)CC2)s1', 'zone of inhibition at 100 µg/mL', 'mm', 13),
  ('O=C(c1ccc([N+](=O)[O-])o1)N1CCN(C2=NS(=O)(=O)c3ccccc3N2c2ccccc2)CC1', 'zone of inhibition at 100 µg/mL', 'mm', 11);

The measured zone of inhibition at 100 µg/mL associated with `CN1C(N2CCN(Cc3ccc([N+](=O)[O-])s3)CC2)=NS(=O)(=O)c2ccccc21` reads 12

Notebook: `O=[N+]([O-])c1ccc(CN2CCN(C3=NS(=O)(=O)c4ccccc4N3c3ccccc3)CC2)o1` , zone of inhibition at 100 µg/mL read as 15

zone of inhibition at 100 µg/mL in this record for `CN1C(N2CCN(Cc3ccc([N+](=O)[O-])o3)CC2)=NS(=O)(=O)c2ccccc21` : 19

The compound `CCN1C(N2CCN(Cc3ccc([N+](=O)[O-])o3)CC2)=NS(=O)(=O)c2ccccc21` showed zone of inhibition at 100 µg/mL equal to 19

Entry `CCN1C(N2CCN(Cc3ccc([N+](=O)[O-])s3)CC2)=NS(=O)(=O)c2ccccc21` , zone of inhibition at 100 µg/mL reported as 14

###

# Tested on: Bacillus subtilis
# Experiment: Antibacterial activity against Bacillus subtilis at 100 ug/ml after 18 hrs by cup plate method
# Assay type: functional
# Condition Notes: read-out: DIZ
Reported zone of inhibition at 100 µg/mL by item:
Give your result in mm as a bare value.

INSERT INTO results (query_smiles, recorded_endpoint, unit_spec, endpoint_value) VALUES
  ('CN1C(N2CCN(Cc3ccc([N+](=O)[O-])o3)CC2)=NS(=O)(=O)c2ccccc21', 'zone of inhibition at 100 µg/mL', 'mm', 23),
  ('O=C(c1ccc([N+](=O)[O-])o1)N1CCN(C2=NS(=O)(=O)c3ccccc3N2c2ccccc2)CC1', 'zone of inhibition at 100 µg/mL', 'mm', 19);

Field zone of inhibition at 100 µg/mL (system: Bacillus subtilis) for entry `O=[N+]([O-])c1ccc(CN2CCN(C3=NS(=O)(=O)c4ccccc4N3c3ccccc3)CC2)o1` = 19

Considering `CCN1C(N2CCN(Cc3ccc([N+](=O)[O-])s3)CC2)=NS(=O)(=O)c2ccccc21` , its zone of inhibition at 100 µg/mL with Bacillus subtilis was recorded as 16

Simply: `O=[N+]([O-])c1ccc(CN2CCN(C3=NS(=O)(=O)c4ccccc4N3c3ccccc3)CC2)s1` , Bacillus subtilis, zone of inhibition at 100 µg/mL = 14

Bench note, Bacillus subtilis: `CN1C(N2CCN(Cc3ccc([N+](=O)[O-])s3)CC2)=NS(=O)(=O)c2ccccc21` , zone of inhibition at 100 µg/mL reads 18

Reported Bacillus subtilis zone of inhibition at 100 µg/mL for item `CCN1C(N2CCN(Cc3ccc([N+](=O)[O-])o3)CC2)=NS(=O)(=O)c2ccccc21` was 23
